# System: HepG2
# assay_method_text: Cytotoxicity (XTT) on HepG2 cells
# Assay type: cell-based, human
# condition_notes: 100 μM, 72 h
quantity_kind: Cell viability HepG2 100 μM (% vs. control)
Please reply with the bare figure in % vs. control and do not write the unit itself.

smiles_str: O=C(NCC(=O)N1CCCC1)C(=O)[C@@H]1CCCN1C(=O)CNC(=O)c1ccnc2ccccc12
quantity_kind: Cell viability HepG2 100 μM
measured_value: 106
//
smiles_str: CN(C)C(=O)CNC(=O)C(=O)[C@@H]1CCCN1C(=O)CNC(=O)c1ccnc2ccccc12
quantity_kind: Cell viability HepG2 100 μM
measured_value: 104
//
smiles_str: COc1ccc(NC(=O)C(=O)[C@@H]2CCCN2C(=O)CNC(=O)c2ccnc3ccccc23)cc1
quantity_kind: Cell viability HepG2 100 μM
measured_value: 82
//
smiles_str: COc1ccc(CCNC(=O)C(=O)[C@@H]2CCCN2C(=O)CNC(=O)c2ccnc3ccccc23)cc1OC
quantity_kind: Cell viability HepG2 100 μM
measured_value: 90
//
smiles_str: O=C(CNC(=O)C(=O)[C@@H]1CCCN1C(=O)CNC(=O)c1ccnc2ccccc12)NCc1ccccc1
quantity_kind: Cell viability HepG2 100 μM
measured_value: 89

## Task Supply Cell viability HepG2 100 μM value. Item: O=C(NCCc1ccccc1)C(=O)[C@@H]1CCCN1C(=O)CNC(=O)c1ccnc2ccccc12
## Result 89

## Task Supply Cell viability HepG2 100 μM value. Item: CC(C)NC(=O)CNC(=O)C(=O)[C@@H]1CCCN1C(=O)CNC(=O)c1ccnc2ccccc12
## Result 108

## Task Supply Cell viability HepG2 100 μM value. Item: COC(=O)[C@H](CC(C)C)NC(=O)CNC(=O)C(=O)[C@@H]1CCCN1C(=O)CNC(=O)c1ccnc2ccccc12
## Result 110

## Task Supply Cell viability HepG2 100 μM value. Item: O=C(NC1CC1)C(=O)[C@@H]1CCCN1C(=O)CNC(=O)c1ccnc2ccccc12
## Result 108

## Task Supply Cell viability HepG2 100 μM value. Item: COC(=O)[C@H](CCCCNC(=O)OCc1ccccc1)NC(=O)CNC(=O)C(=O)[C@@H]1CCCN1C(=O)CNC(=O)c1ccnc2ccccc12
## Result 101

====

Each entry below lists one item and its recorded Cell viability HeLa S3 10 μM value.
# System: Hela
# assay_method_text: Cytotoxicity (XTT) on Hela cells
# Type: cell-based, human
# condition_notes: 10 μM, 72 h
Please reply with the bare figure in % vs. control and do not write the unit itself.

Examples with answers:
smiles_str: O=C(NCCc1ccccc1)C(=O)[C@@H]1CCCN1C(=O)CNC(=O)c1ccnc2ccccc12
measured_value: 86
--
smiles_str: O=C(NC1CC1)C(=O)[C@@H]1CCCN1C(=O)CNC(=O)c1ccnc2ccccc12
measured_value: 89
--
smiles_str: COC(=O)CNC(=O)C(=O)[C@@H]1CCCN1C(=O)CNC(=O)c1ccnc2ccccc12
measured_value: 104

## Task Supply Cell viability HeLa S3 10 μM value. Item: CC(C)(C)OC(=O)CNC(=O)C(=O)[C@@H]1CCCN1C(=O)CNC(=O)c1ccnc2ccccc12
## Result 95

====

# Test system: HL-60
# assay_method_text: Cytotoxicity (XTT) on HL-60 cells
# Type: cell-based, human
# condition_notes: 100 μM, 72 h
Each entry below lists one item and its recorded Cell viability HL60 100 μM value.
Please reply with the bare figure in % vs. control and do not write the unit itself.

## Task Supply Cell viability HL60 100 μM value. Item: COc1ccc(CCNC(=O)C(=O)[C@@H]2CCCN2C(=O)CNC(=O)c2ccnc3ccccc23)cc1OC [Compound 3e]
## Result 106

## Task Supply Cell viability HL60 100 μM value. Item: COC(=O)[C@H](CCC(=O)OCc1ccccc1)NC(=O)CNC(=O)C(=O)[C@@H]1CCCN1C(=O)CNC(=O)c1ccnc2ccccc12 [Compound 5h]
## Result 106

## Task Supply Cell viability HL60 100 μM value. Item: O=C(NC1CC1)C(=O)[C@@H]1CCCN1C(=O)CNC(=O)c1ccnc2ccccc12 [Compound 3h]
## Result 95

## Task Supply Cell viability HL60 100 μM value. Item: O=C(NCc1ccccc1)C(=O)[C@@H]1CCCN1C(=O)CNC(=O)c1ccnc2ccccc12 [Compound 3a]
## Result 106

## Task Supply Cell viability HL60 100 μM value. Item: O=C(NCC(=O)N1CCCC1)C(=O)[C@@H]1CCCN1C(=O)CNC(=O)c1ccnc2ccccc12 [Compound 5b]
## Result 86

## Task Supply Cell viability HL60 100 μM value. Item: COC(=O)[C@H](CCCCNC(=O)OCc1ccccc1)NC(=O)CNC(=O)C(=O)[C@@H]1CCCN1C(=O)CNC(=O)c1ccnc2ccccc12 [Compound 5i]
## Result 101
